target: PBMC/LMP2 (Homo sapiens); assay: Durability of binding in cells, wash-out assay, PBMC/LMP2; type: cell-based; settings: 2 h incubation, inhibitor washout, 18 hr in culture
parameter-measured: IC50 (µM)
One number for each entry, in µM.

Please tell me: IC50 of CC(C)C=C(C#N)C(=O)N1CCC[C@@H]1COC[C@H](NC(=O)c1cc(Cl)ccc1Cl)C(=O)N[C@@H](Cc1ccccc1)B(O)O , system PBMC/LMP2 (Homo sapiens)?
2.96

* * *

For each entry below, report its pIC50 value.
target: immunoproteasome LMP7/B5i subunit (Homo sapiens, UniProt P28062); test: Caliper-based proteasome enzymatic activity assay, LMP7; type: biochemical; conditions: human recombinant immunoproteasome 0.3 nM, FAM-labeled peptide substrate 1 μM, rt 3 h; read-out: LMP7 subunit IC50
One number for each entry, as −log10 of the molar value.

                                   compound  parameter_measured  number
0  C=CC(=O)N1CCC[C@H](OC(=O)N[C@@H](Cc2ccccc2)B(O)O)C1               pIC50    6.60

State recorded pIC50 for all listed compounds.
1. CC(C)C=C(C#N)C(=O)N1CCC[C@@H]1COC[C@H](NC(=O)c1cc(Cl)ccc1Cl)C(=O)N[C@@H](Cc1ccccc1)B(O)O
2. CC(C)(C=C(C#N)C(=O)N1CCC[C@H](OC(=O)N[C@@H](CC2=CCCC2)B(O)O)C1)N1CCOCC1

8.77
8.11

State recorded pIC50 for all listed compounds.
1. C[C@@H]1CN(C(C)(C)C=C(C#N)C(=O)N2C3CCC2(COC(=O)N[C@@H](Cc2ccccc2)B(O)O)CC3)C[C@@H](C)O1
2. CC(C)(C=C(C#N)C(=O)N1CCCC[C@H](OC(=O)N[C@@H](Cc2ccccc2)B(O)O)C1)N1CCC(F)(F)C1
3. C=CC(=O)N1C[C@H](OC(=O)N[C@@H](Cc2ccccc2)B(O)O)[C@@H](F)C1
4. CC(C)(C)/C=C(\C#N)C(=O)N1CC[C@H](OC(=O)N[C@@H](Cc2ccccc2)B(O)O)C1
5. CC(C)C=C(C#N)C(=O)NCCCC[C@H](NS(C)(=O)=O)C(=O)N[C@@H](Cc1ccccc1)B(O)O
6. CC(C)(C=C(C#N)C(=O)N1CCC[C@H](OC(=O)N[C@@H](Cc2coc3ccccc23)B(O)O)C1)N1CCC(F)(F)C1

1. 8.89
2. 8.60
3. 7.11
4. 8.72
5. 7.87
6. 8.96
